testSummary: qHTS assay to test for compound auto fluorescence at 590 nm (red) in HepG2 cells (AID 720674)
measurementParameters: HepG2 autofluorescence, red 540/590 nm, 1 h; series mostly up to 91.3 µM
Activity calls are given as the source filed them. Calls follow the shape of the dose curve; as a rule, active = well fitted curve in the direction sought with a large enough effect in the repeat runs; inconclusive = weak or mixed curves; inactive = flat fitted curve, though single readings scatter.
observationType: outcome

Below, 4 compounds whose answers are already recorded.
CN(C)CCOC(C)(c1ccccc1)c1ccccn1 (stereo not given) : inactive
O=c1[nH]cc(F)c(=O)[nH]1 : inactive
CN1[C@@H]2CC(OC(=O)[C@H](CO)c3ccccc3)C[C@H]1[C@@H]1O[C@@H]12 (stereo not given in full) : inactive
CC(C)C(=O)Nc1ccc([N+](=O)[O-])c(C(F)(F)F)c1 : inactive

## Task What does the data say about its outcome? Entry: Oc1ccccc1
## Result inactive

----------
testSummary: qHTS RealTime-Glo MT Cell Viability Assay in HEK293 cells - 16 hour (AID 1224872); also: nearly all actives have a fitted effect of over 50% in size
measurementParameters: RealTime-Glo luminescence; series mostly up to 76.8 µM
Source text: National Center for Advancing Translational Sciences [NCATS] NIH Chemical Genomics Center [NCGC] U.S. Environmental Protection Agency [EPA] National Institutes of Environmental Health Sciences [NIEHS] National Toxicology Program [NTP] U.S. Food and Drug Administration [FDA] Measure of cell viability is critical in the cell-base assay. Analysis of cell viability is necessary for the characterization of cell responses to cytotoxic drugs and environmental stress. […]
Results filed as inconclusive are left out. Activity calls are given as the source filed them. The call rests on the fitted dose curve; in most records, active means well fitted cell-killing curve with a large enough effect in the repeat runs; inconclusive means weak or mixed curves, or effect the other way; inactive means flat fitted curve, though single readings scatter.
Can you answer with just one of these options? y = active, n = inactive

## Task What outcome does the record of this test show for CC/C(=C(\c1ccccc1)c1ccc(OCCN(C)C)cc1)c1ccccc1 ?
## Result y

## Task Input NC(CO)(CO)CO
## Result n

## Task Now consider Oc1ccccc1 .
## Result n

## Task Param item: CC(=O)Nc1c(I)c(NC(C)=O)c(I)c(C(=O)O)c1I
## Result n

## Task What would you report for CCOc1ccc(NC(C)=O)cc1 ?
## Result n

## Task Try this compound too: C/C=C/C=C/C(=O)O
## Result n

## Task What about COc1ccc2cc(S(=O)(=O)N[C@H](CC(=O)N[C@H](Cc3ccc(CN4[C@H](C)CCC[C@@H]4C)cc3)C(=O)N(C)C(C)C)c3ccc4c(c3)OCO4)ccc2c1 ?
## Result y

## Task Please give the result for CN(C)C(=O)Nc1ccc(Cl)c(Cl)c1 too.
## Result n

## Task Then what about the compound CCCC[P+](CCCC)(CCCC)CCCC ?
## Result y

## Task What do you have for O=C1NC(=O)C(c2ccccc2)(c2ccccc2)N1 ?
## Result n

## Task Next: Cc1c(C(=O)O)c(O)cc2c1C(=O)c1c(O)c([C@@H]3O[C@H](CO)[C@@H](O)[C@H](O)[C@H]3O)c(O)c(O)c1C2=O
## Result n

----------
testSummary: qHTS assay to identify small molecule antagonists of the constitutive androstane receptor (CAR) signaling pathway - cell viability counter screen (AID 1224837); also: nearly all actives have a fitted effect of over 45% in size
measurementParameters: HepG2-CYP2B6-hCAR viability, CellTiter-Fluor, 23 h, co-treated with 50 nM CITCO; series mostly up to 92.4 µM
Results filed as inconclusive are left out. The source made the active and inactive calls. Calls come from the whole dose curve; as a rule, active = well fitted cell-killing curve with a large enough effect in the repeat runs; inconclusive = weak or mixed curves, or effect the other way; inactive = flat fitted curve, though single readings scatter.
// classify into active, inactive

## Task Hey, what did the test say about OC[C@H]1O[C@H](O[C@]2(CCl)O[C@H](CCl)[C@@H](O)[C@@H]2O)[C@H](O)[C@@H](O)[C@H]1Cl ?
## Result inactive

## Task Here is the next compound: CCCc1cc(=O)[nH]c(=S)[nH]1
## Result inactive

## Task Next entry: O=C1NC(=O)C(c2ccccc2)(c2ccccc2)N1
## Result inactive

## Task Query CNNCc1ccc(C(=O)NC(C)C)cc1 next
## Result inactive

## Task Same question, CN(C)C(=O)Nc1ccc(Cl)c(Cl)c1 this time
## Result inactive

## Task Same question for CC12CCC(CC1)C(C)(C)O2 please.
## Result inactive

## Task Same read-out for CN(C)CCOC(c1ccccc1)c1ccccc1 ?
## Result inactive

## Task Also check O=C1O[C@H]([C@@H](O)CO)C(O)=C1O
## Result inactive

## Task Quick one: CCCC[P+](CCCC)(CCCC)CCCC
## Result inactive

## Task Also need CN(N=O)C(=O)N[C@@H]1[C@@H](O)[C@H](O)[C@@H](CO)O[C@@H]1O , thanks.
## Result inactive

## Task Queued: C/C=C/C=C/C(=O)O
## Result inactive

## Task Moving on to Nc1ccc(S(N)(=O)=O)cc1
## Result inactive

## Task Again, but for Cc1ncc([N+](=O)[O-])n1CCO
## Result inactive

## Task Check CCCCNC(=O)NS(=O)(=O)c1ccc(C)cc1 too.
## Result inactive

## Task What would you report for Cc1cc(C)nc(NS(=O)(=O)c2ccc(N)cc2)n1 ?
## Result inactive

## Task Also need CCc1nc(N)nc(N)c1-c1ccc(Cl)cc1 , thanks.
## Result inactive

## Task Note, next up: Nc1c(N=Nc2ccc(-c3ccc(N=Nc4cc(S(=O)(=O)O)c5ccccc5c4N)cc3)cc2)cc(S(=O)(=O)O)c2ccccc12
## Result active

## Task What do we get for CCN(Cc1c(F)cccc1Cl)c1c([N+](=O)[O-])cc(C(F)(F)F)cc1[N+](=O)[O-] ?
## Result inactive

## Task Record: CC(=O)Nc1c(I)c(NC(C)=O)c(I)c(C(=O)O)c1I
## Result inactive

## Task Similarly, CCCCCCCC(=O)OCC(COC(=O)CCCCCCC)OC(=O)CCCCCCC ?
## Result inactive

## Task And then Cc1ncc([N+](=O)[O-])n1C , what is it?
## Result inactive

## Task Similarly, CC(=O)CCC(=O)O ?
## Result inactive

## Task Same question for CCCCC(CC)C(=O)O (stereo not given) please.
## Result inactive

## Task Subsequent entry: CN[C@H]1CC[C@@H](c2ccc(Cl)c(Cl)c2)c2ccccc21
## Result inactive

## Task Further, for COc1ccc2c(c1)c(CC(=O)O)c(C)n2C(=O)c1ccc(Cl)cc1 ?
## Result inactive

----------
testSummary: qHTS assay to identify small molecule HDAC inhibitors (AID 1259364);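 also: wild-type HCT-116 cells with endogenous class I/II HDAC activity; nearly all actives have a fitted effect of over 45% in size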
measurementParameters: HCT-116 HDAC-Glo I/II luminescence, 2 h; series mostly up to 92.4 µM
Inconclusive results are not listed. Activity calls are given as the source filed them. The call rests on the fitted dose curve; in most records, active means well fitted inhibition curve with a large enough effect in the repeat runs; inconclusive means weak or mixed curves; inactive means flat fitted curve, though single readings scatter.
// classify into active, inactive

## Task Test call for this compound, please: NS(=O)(=O)O
## Result inactive

## Task # iterate: Nc1ccc(S(N)(=O)=O)cc1
## Result inactive

## Task Also, O=C(O)c1ccccc1 please.
## Result inactive

## Task Entry Cc1cccc(C)c1 please
## Result inactive

## Task One more compound: CN(C)CCOC(C)(c1ccccc1)c1ccccn1 (stereo not drawn)
## Result inactive

## Task Try this compound next: Cc1c(C(=O)O)c(O)cc2c1C(=O)c1c(O)c([C@@H]3O[C@H](CO)[C@@H](O)[C@H](O)[C@H]3O)c(O)c(O)c1C2=O
## Result inactive

## Task Please give the result for O=CC(=O)c1ccccc1 too.
## Result inactive

## Task Also O=S1(=O)OC(c2ccc(O)cc2)(c2ccc(O)cc2)c2ccccc21 , if possible.
## Result inactive

## Task Again, but for CCN(Cc1c(F)cccc1Cl)c1c([N+](=O)[O-])cc(C(F)(F)F)cc1[N+](=O)[O-]
## Result inactive

## Task Proceed to OC[C@H]1O[C@H](O[C@]2(CCl)O[C@H](CCl)[C@@H](O)[C@@H]2O)[C@H](O)[C@@H](O)[C@H]1Cl
## Result inactive

## Task Would you kindly repeat that for CCN(CC)C(=O)c1cccc(C)c1 ?
## Result inactive

## Task Same again, this time with Cn1c(=O)c2c(ncn2C)n(C)c1=O
## Result inactive

## Task Would you mind doing F[B-](F)(F)F as well?
## Result inactive

## Task And the next one, CN(C)C(=O)Nc1ccc(Cl)c(Cl)c1 ?
## Result inactive

## Task And the next one, CCCc1cc(=O)[nH]c(=S)[nH]1 ?
## Result inactive

## Task Same question, CCc1nc(N)nc(N)c1-c1ccc(Cl)cc1 this time
## Result inactive

## Task Repeat with CC/C(=C(\c1ccccc1)c1ccc(OCCN(C)C)cc1)c1ccccc1
## Result inactive

## Task And for Cc1cc(C)nc(NS(=O)(=O)c2ccc(N)cc2)n1 ?
## Result inactive

## Task Also need Nc1ccc2c(c1)CN1C(=O)c3ccccc3C1=N2 , thanks.
## Result active

## Task CC(C)NCC(O)c1ccc(O)c(O)c1 (stereo not drawn) ?
## Result inactive

## Task Now try CS(=O)(=O)OCCCCOS(C)(=O)=O .
## Result inactive

## Task Same for Cc1ncc([N+](=O)[O-])n1CCO
## Result inactive

## Task Likewise for Cc1ccc(S(=O)(=O)O)cc1 ?
## Result inactive

Cited source for all entries: PubChem BioAssay (Tox21)
